# EXPERIMENTAL_TARGET: T1, human PD-L1 protein (ELISA antigen) (human, UniProt Q9NZQ7 19-238, limits assumed)
# T1 construct: One molecule is used for both ELISAs; also called PD-L1-biotin protein
# T1 sequence (Q9NZQ7 19-238 limits assumed): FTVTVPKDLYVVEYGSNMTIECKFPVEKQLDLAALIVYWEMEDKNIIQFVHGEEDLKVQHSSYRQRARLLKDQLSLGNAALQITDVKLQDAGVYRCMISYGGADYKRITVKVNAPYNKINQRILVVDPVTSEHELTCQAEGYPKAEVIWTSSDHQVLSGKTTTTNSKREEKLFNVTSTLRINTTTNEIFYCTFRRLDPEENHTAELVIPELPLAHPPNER
# EXPERIMENT: relative to original antibody h_Nb1 (SEQ ID NO. 1); ELISA comparison per Example 10
EXPERIMENTAL_ENDPOINT: Improved value of relative affinity
Answers are plain numbers.

Below: 4 binders and their reported Improved value of relative affinity.
BINDER: h_Nb1_C103M (VHH, also called 81) VHH: DVQLQESGGGLVQPGGSLRLSCAASGFTFSSYAMSWVRQAPGKGLEWVSDINSGGDNTDYADSVKGRFTISRDNAKNTLYLQMNSLKPEDTAVYYCARGPKLMFSSWGQGTQVTVSS
EXPERIMENTAL_ENDPOINT: Improved value of relative affinity
OBSERVED_RESULT: 3.38
//
BINDER: h_Nb1_A61Q (VHH, also called 73) VHH: DVQLQESGGGLVQPGGSLRLSCAASGFTFSSYAMSWVRQAPGKGLEWVSDINSGGDNTDYQDSVKGRFTISRDNAKNTLYLQMNSLKPEDTAVYYCARGPKLCFSSWGQGTQVTVSS
EXPERIMENTAL_ENDPOINT: Improved value of relative affinity
OBSERVED_RESULT: 4.66
//
BINDER: h_Nb1_C103W (VHH, also called 82) VHH: DVQLQESGGGLVQPGGSLRLSCAASGFTFSSYAMSWVRQAPGKGLEWVSDINSGGDNTDYADSVKGRFTISRDNAKNTLYLQMNSLKPEDTAVYYCARGPKLWFSSWGQGTQVTVSS
EXPERIMENTAL_ENDPOINT: Improved value of relative affinity
OBSERVED_RESULT: 3.83
//
BINDER: h_Nb1_G99Y (VHH, also called 86) VHH: DVQLQESGGGLVQPGGSLRLSCAASGFTFSSYAMSWVRQAPGKGLEWVSDINSGGDNTDYADSVKGRFTISRDNAKNTLYLQMNSLKPEDTAVYYCARYPKLCFSSWGQGTQVTVSS
EXPERIMENTAL_ENDPOINT: Improved value of relative affinity
OBSERVED_RESULT: 7.02

For the 5 binders below, give their Improved value of relative affinity values.
1. h_Nb1_A61N (VHH, also called 72) VHH: DVQLQESGGGLVQPGGSLRLSCAASGFTFSSYAMSWVRQAPGKGLEWVSDINSGGDNTDYNDSVKGRFTISRDNAKNTLYLQMNSLKPEDTAVYYCARGPKLCFSSWGQGTQVTVSS
2. h_Nb1_D59R (VHH, also called 75) VHH: DVQLQESGGGLVQPGGSLRLSCAASGFTFSSYAMSWVRQAPGKGLEWVSDINSGGDNTRYADSVKGRFTISRDNAKNTLYLQMNSLKPEDTAVYYCARGPKLCFSSWGQGTQVTVSS
3. h_Nb1_D59M (VHH, also called 76) VHH: DVQLQESGGGLVQPGGSLRLSCAASGFTFSSYAMSWVRQAPGKGLEWVSDINSGGDNTMYADSVKGRFTISRDNAKNTLYLQMNSLKPEDTAVYYCARGPKLCFSSWGQGTQVTVSS
4. h_Nb1_G99Q (VHH, also called 84) VHH: DVQLQESGGGLVQPGGSLRLSCAASGFTFSSYAMSWVRQAPGKGLEWVSDINSGGDNTDYADSVKGRFTISRDNAKNTLYLQMNSLKPEDTAVYYCARQPKLCFSSWGQGTQVTVSS
5. h_Nb1_G99W (VHH, also called 85) VHH: DVQLQESGGGLVQPGGSLRLSCAASGFTFSSYAMSWVRQAPGKGLEWVSDINSGGDNTDYADSVKGRFTISRDNAKNTLYLQMNSLKPEDTAVYYCARWPKLCFSSWGQGTQVTVSS

Output:
5.13
4.28
4.9
6.16
6.16
